Experiment: physchem
Details: oil or lipid, thermodynamic from solid
attribute-measured: solubility (mg/mL)

[
  {
    "compound": "CCOc1cc(C=O)ccc1O",
    "data-value": 38
  },
  {
    "compound": "CCOc1cccc(C=O)c1O [ortho-Ethylvanillin, 2-hydroxy-3-ethoxybenzaldehyde]",
    "data-value": 73
  }
]
